Where these numbers come from: the kinase profiling compilation of Christmann-Franck et al. (2016)

Target: DYRK2 (human) (UniProt Q92630)
Sequence (Q92630 whole entry, looked up): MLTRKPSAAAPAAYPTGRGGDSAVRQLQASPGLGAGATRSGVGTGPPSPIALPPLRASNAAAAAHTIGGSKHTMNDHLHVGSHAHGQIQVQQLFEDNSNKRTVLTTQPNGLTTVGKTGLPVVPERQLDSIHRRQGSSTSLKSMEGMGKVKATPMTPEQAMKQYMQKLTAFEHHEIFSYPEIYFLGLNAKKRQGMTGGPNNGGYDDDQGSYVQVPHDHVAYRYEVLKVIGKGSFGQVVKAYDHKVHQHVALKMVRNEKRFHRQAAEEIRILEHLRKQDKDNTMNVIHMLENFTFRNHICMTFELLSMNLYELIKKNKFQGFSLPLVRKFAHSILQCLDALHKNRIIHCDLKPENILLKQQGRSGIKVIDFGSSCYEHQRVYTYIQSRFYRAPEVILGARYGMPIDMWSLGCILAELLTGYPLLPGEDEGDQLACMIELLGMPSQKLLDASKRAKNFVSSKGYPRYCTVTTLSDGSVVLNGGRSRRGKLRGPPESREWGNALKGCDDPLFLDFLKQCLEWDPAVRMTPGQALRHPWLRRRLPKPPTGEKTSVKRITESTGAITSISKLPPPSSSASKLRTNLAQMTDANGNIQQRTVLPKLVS
Test: radiometric filter-binding kinase assay, Kinase HotSpot
Conditions: compound 0.5 µM; ATP 10 µM
Listed below: residual activity values for each entry.

// solved cases for residual activity follow
>  <smiles.structure>
FC(F)(F)c1ccc(/C=C/c2nc(COc3ccc(CCCCn4ccnn4)cc3)co2)cc1

>  <observed.value>
110%

$$$$
>  <smiles.structure>
COc1cc2ncnc(Nc3ccc(O)c(Br)c3)c2cc1OC

>  <observed.value>
60%

$$$$

stdin: Request the reported residual activity associated with CCc1nc(-c2ccc(OC)cc2)[nH]c1-c1ccncc1
stdout: 85.8%

stdin: Request the reported residual activity associated with O=C(c1ccccc1)c1ccc(N2CCOCC2)cc1O
stdout: 96.8%

stdin: Request the reported residual activity associated with Cn1cc(/C=C2\C(=O)Nc3ccc(S(N)(=O)=O)cc32)c2ccccc21
stdout: 85.5%

stdin: Request the reported residual activity associated with N#C/C(=C1/Nc2ccccc2S1)c1ccnc(NCCc2cccnc2)n1
stdout: 22.2%

stdin: Request the reported residual activity associated with Nc1ncnc2c1cnn2-c1ccccc1
stdout: 95.6%

stdin: Request the reported residual activity associated with CCCCc1c(-c2ccc(O)cc2)[nH]c2nccnc12
stdout: 93.1%

stdin: Request the reported residual activity associated with COc1cccc(-c2cc(=O)c3ccccc3o2)c1N
stdout: 92.5%

stdin: Request the reported residual activity associated with CCOc1cc2ncnc(Nc3cccc(Br)c3)c2cc1OCC
stdout: 88.8%

stdin: Request the reported residual activity associated with COc1cc2c(cc1OC)-c1[nH]nc(Nc3cccc(F)c3)c1C2
stdout: 95.3%

stdin: Request the reported residual activity associated with N#Cc1c(NC(=O)c2cccc3ccccc23)sc2c1CCCC2
stdout: 119%

stdin: Request the reported residual activity associated with O=C1NC(=O)c2cc(Nc3ccc(F)cc3)c(Nc3ccc(F)cc3)cc21
stdout: 89.1%

stdin: Request the reported residual activity associated with c1ccc(-c2cnc(Nc3ccc(OCCN4CCCC4)cc3)s2)cc1
stdout: 95%

stdin: Request the reported residual activity associated with O=c1c2ccccc2[nH]c(=S)n1CCN1CCC(=C(c2ccc(F)cc2)c2ccc(F)cc2)CC1
stdout: 95.4%

stdin: Request the reported residual activity associated with COc1cc2c(Nc3ccc(Br)cc3F)ncnc2cc1OCC1CCN(C)CC1
stdout: 97.2%

* * *

Biological target: ULK3 (human)
Assay: radiometric filter-binding kinase assay, Kinase HotSpot
Details: compound 0.5 µM; ATP 10 µM
We label by threshold. Values of residual activity strictly beneath 90% are satisfied. Values of 90% and up are not satisfied.

See these solved cases before continuing.
>  <smiles.structure>
Cn1cc(/C=C2\C(=O)Nc3ccc(S(N)(=O)=O)cc32)c2ccccc21

>  <group.label>
satisfied

$$$$
>  <smiles.structure>
Nc1ncnc2c1cnn2-c1ccccc1

>  <group.label>
not satisfied

$$$$
>  <smiles.structure>
O=c1cc(N2CCOCC2)oc2c(-c3ccccc3)cccc12

>  <group.label>
not satisfied

$$$$
>  <smiles.structure>
COc1cc2c(cc1OC)-c1[nH]nc(Nc3cccc(F)c3)c1C2

>  <group.label>
not satisfied

$$$$
>  <smiles.structure>
O=C1NC(=O)c2cc(Nc3ccc(F)cc3)c(Nc3ccc(F)cc3)cc21

>  <group.label>
not satisfied

$$$$
>  <smiles.structure>
COc1cccc(-c2cc(=O)c3ccccc3o2)c1N

>  <group.label>
not satisfied

$$$$
>  <smiles.structure>
O=C(O)c1ccc2c3c1cccc3c(=O)n1c3ccccc3nc21

>  <group.label>
satisfied

$$$$
>  <smiles.structure>
COc1cc2c(N3CCN(C(=O)Nc4ccc(OC(C)C)cc4)CC3)ncnc2cc1OCCCN1CCCCC1

>  <group.label>
not satisfied

$$$$

stdin: Dear reviewer, please state whether CN[C@@H]1C[C@H]2O[C@@](C)([C@@H]1OC)n1c3ccccc3c3c4c(c5c6ccccc6n2c5c31)C(=O)NC4 has residual activity strictly beneath 90%.
stdout: satisfied

stdin: Dear reviewer, please state whether N#C/C(=C1/Nc2ccccc2S1)c1ccnc(NCCc2cccnc2)n1 has residual activity strictly beneath 90%.
stdout: not satisfied
